- Assay system: Muscarinic acetylcholine receptor M2 (Homo sapiens, UniProt P08172)
- Sequence (P08172 whole entry): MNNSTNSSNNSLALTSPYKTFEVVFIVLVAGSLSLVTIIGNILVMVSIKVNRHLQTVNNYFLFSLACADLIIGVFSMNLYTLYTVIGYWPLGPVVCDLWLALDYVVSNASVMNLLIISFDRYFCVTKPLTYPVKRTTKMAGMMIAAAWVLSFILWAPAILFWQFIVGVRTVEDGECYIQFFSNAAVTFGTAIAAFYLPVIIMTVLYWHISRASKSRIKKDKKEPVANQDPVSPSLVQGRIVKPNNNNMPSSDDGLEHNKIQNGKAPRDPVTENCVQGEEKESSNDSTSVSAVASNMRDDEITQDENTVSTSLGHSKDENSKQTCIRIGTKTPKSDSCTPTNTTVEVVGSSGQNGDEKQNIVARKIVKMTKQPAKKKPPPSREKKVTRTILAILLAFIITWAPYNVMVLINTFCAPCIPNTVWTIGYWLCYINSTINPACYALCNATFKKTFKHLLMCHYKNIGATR
Property label: Ki
Report field: quantity (unit follows the number).

Recorded Ki (molecule CCOc1cc([C@H](Cc2c(Cl)c[n+]([O-])cc2Cl)OC(=O)c2ccc(CN[C@@](CO)(C(=O)O[C@H]3CN4CCC3CC4)c3ccccc3)s2)ccc1OC ): 0.01 µM

----------
- Protocol description: Metabolic stability in human lung S9 fraction assessed as half life at 1 uM and measured upto 60 mins in presence of NADPH by LC-MS/MS analysis
- Type: ADME, subcellular
- Measurement context: lung S9 fraction
Kindly state half-life at 1 µM for each of the entries shown.
Reply with just the number (in h).

Recorded half-life at 1 µM (compound COc1ccc([C@H](Cc2c(Cl)c[n+]([O-])cc2Cl)OC(=O)c2ccc(CN[C@@H](C(=O)O[C@H]3CN4CCC3CC4)c3ccccc3)s2)cc1OC ): 1.15

Recorded half-life at 1 µM (compound COc1ccc([C@H](Cc2c(Cl)c[n+]([O-])cc2Cl)OC(=O)c2ccc(CNC(C)(C(=O)O[C@H]3CN4CCC3CC4)c3ccccc3)s2)cc1OC (stereo in doubt; 1f) ): 1.83

Recorded half-life at 1 µM (compound COc1ccc([C@H](Cc2c(Cl)c[n+]([O-])cc2Cl)OC(=O)c2ccc(CNC(CO)(C(=O)O[C@H]3CN4CCC3CC4)c3ccccc3)s2)cc1OC (stereo in doubt; 3f) ): 1.32

----------
Kindly state half-life at 5 µM for each of the entries shown.
- Protocol description: Metabolic stability in human plasma assessed as half life at 5 uM and measured upto 180 mins by HPLC-MS/MS analysis
- Assay type: ADME, cell-free
Reply with just the number (in h).

Recorded half-life at 5 µM (compound COc1ccc([C@H](Cc2c(Cl)c[n+]([O-])cc2Cl)OC(=O)c2ccc(CN[C@@H](C(=O)O[C@H]3CN4CCC3CC4)c3ccccc3)s2)cc1OC ): 0.183

Recorded half-life at 5 µM (compound COc1ccc([C@H](Cc2c(Cl)c[n+]([O-])cc2Cl)OC(=O)c2ccc(CNC(C)(C(=O)O[C@H]3CN4CCC3CC4)c3ccccc3)s2)cc1OC (stereo in doubt; 1f) ): 2.9

----------
- Protocol description: Solubility of compound simulated lung fluid at 1 mg/ml and measured at 0 hr by UPLC-MS analysis
- Format: physicochemical
Property label: solubility at 0 h (µg/mL)
Reply with just the number (in µg/mL).

Recorded solubility at 0 h (molecule CCOc1cc([C@H](Cc2c(Cl)c[n+]([O-])cc2Cl)OC(=O)c2ccc(CN[C@@](CO)(C(=O)O[C@H]3CN4CCC3CC4)c3ccccc3)s2)ccc1OC ): 3.3
